B1: LINE1-full (parent)
chain: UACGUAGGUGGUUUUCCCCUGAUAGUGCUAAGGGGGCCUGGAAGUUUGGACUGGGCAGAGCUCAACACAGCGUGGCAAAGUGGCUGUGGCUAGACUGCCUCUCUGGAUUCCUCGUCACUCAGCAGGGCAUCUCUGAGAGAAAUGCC

variants of: B1; assay: self-cleavage, relative activity (ratio to wild type); higher = more cleavage; in vitro, sequencing; the parent is a self-cleaving ribozyme
The label depends only on self-cleavage: Criterion met if it is at least 1, Criterion not met if it is smaller.

In plain terms: is recorded self-cleavage at least 1 for UACAUAGGUGGUUUUCCCCUGAUAGUGCUAAGGGGGCCUGGAAGUUUGGACUGGGCAGAGCUCAACACAGCGUGGCAAAGUGGCUGUGGCUAGACUGCCUCUCUGGAGUCCUCGUCACUCAGCAGGGCAUCUCUGAGAGAAAUGCC ? Criterion not met

In plain terms: is recorded self-cleavage at least 1 for UACGUAAGUGGUUUUCCCCUGAUAGUGCUAAGGGGGCCUGGAAGUUUGGACUGGGCAGAGCUCAACACAGCGUGGCAAAGUGGCUGUGGCUAGACUGCCUCUCUGGAUUCCUCGUCACUCAGCAGGGCAUCUCUGAGGGAAAUGCC ? Criterion met

In plain terms: is recorded self-cleavage at least 1 for UACGUAGGUGGUUUUACCCUGAUAGUGCUAAGGGGGCCUGGAAGUUUGGACUGGGCAGAGCUCAACACAGCGUGGCAAAGUGGCUGUGGCUAGACUGCCUCUCUGGAUUCCUCGUCACUCUGCAGGGCAUCUCUGAGAGAAAUGCC ? Criterion met

In plain terms: is recorded self-cleavage at least 1 for UACGUAGGUGGUUUUCCCCUGAUAGUGCUAAGGGGGCCUGGAAGUUUGGACUGGGCAGAGCUCAACAUAGCGUGGCAAAGUGGCUGUGGCUAGACUGCCUCUCUGGAUACCUCGUCACUCAGCAGGGCAUCUCUGAGAGAAAUGCC ? Criterion not met

In plain terms: is recorded self-cleavage at least 1 for UAAGUAGGUGGUUUUCCCCUGAUAGUGCUAAGGGGGCCUGGAAGUUUGGACUGGGCAGAGCUCAACACAGCGUGGCAAAGUGGCUGUGGCUAGACUGCCUCUCUGGAUUCCUCGCCACUCAGCAGGGCAUCUCUGAGAGAAAUGCC ? Criterion met

In plain terms: is recorded self-cleavage at least 1 for UACGUAGGUGGUUUUCCCCUGAUAGUGCUAAGGGGGCCUGGAAGUCUGGACUGAGCAGAGCUCAACACAGCGUGGCAAAGUGGCUGUGGCUAGACUGCCUCUCUGGAUUCCUCGUCACUCAGCAGGGCAUCUCUGAGAGAAAUGCC ? Criterion met

In plain terms: is recorded self-cleavage at least 1 for UACGUAGGUGGUUUUCCCCUGAUAGUGCUAAGGGGGCCUGGAAGUUUGGACUGGGCAGAGCUCAACACAGUGUGGCAAAGUGGCUGUGGCUAGACUGCCUCUCUGGAUUCCUCGACACUCAGCAGGGCAUCUCUGAGAGAAAUGCC ? Criterion not met

In plain terms: is recorded self-cleavage at least 1 for UACGUAGGUGGUUUUCCCCUGAUAGUGCUAAGGGGGCCUGGAAGUCUGGACUGGGCAGAGCUCAACACAGCGUGGCAUAGUGGCUGUGGCUAGACUGCCUCUCUGGAUUCCUCGUCACUCAGCAGGGCAUCUCUGAGAGAAAUGCC ? Criterion met

In plain terms: is recorded self-cleavage at least 1 for UACGUAGGUGGUUUUCCCCUGAUAGUGCUGAGGGGGCCUGGAAGUUUGGACUGGGCAGAGCUCAACACAGCGUGGCAAAGUGGCUGUGGCUAGACUGCCUCUCUGGAUACCUCGUCACUCAGCAGGGCAUCUCUGAGAGAAAUGCC ? Criterion met

In plain terms: is recorded self-cleavage at least 1 for UACGUAGGUGGUUUUCCCCUGAUAGUGCUAAGGGGGCCUGGAAGUUUGGACUGGGCAGAGCUCAACACAGCGCGGCAAAGUGGCUGUGGCUAGACUGCCUCUCUGAAUUCCUCGUCACUCAGCAGGGCAUCUCUGAGAGAAAUGCC ? Criterion met

In plain terms: is recorded self-cleavage at least 1 for UACGUAGGUGGUUUUCCCCUGAUAGUGCUAAGGGGGCCUGGAAGUUUGGACUGGGCAGGGCUCAACACAGCGUGGCAAAGUGGCUGUGGCUAGACUACCUCUCUGGAUUCCUCGUCACUCAGCAGGGCAUCUCUGAGAGAAAUGCC ? Criterion not met

In plain terms: is recorded self-cleavage at least 1 for UACGUAGGUGGUUUUCCCCUGAUAGUGCUAAGGGGGCACGGAAGUUUGGACUGGGCAGAGCUCAACACAGCGUGGCAAAGUGGCUGUGGCUAGACUGCCUCUCUGGAUUCCUCGUCACUCAGCAGGGCAUCUCUGAGAGAAAUGCC ? Criterion met

In plain terms: is recorded self-cleavage at least 1 for UACGAAGGUGGUUUUCCCCUGAUAGUGCUAAGGGGGCCUGGAAGUUUGGACUGGGCAGAGCUCAGCACAGCGUGGCAAAGUGGCUGUGGCUAGACUGCCUCUCUGGAUUCCUCGUCACUCAGCAGGGCAUCUCUGAGAGAAAUGCC ? Criterion not met

In plain terms: is recorded self-cleavage at least 1 for UACGUAGGUGGUUUCCCCCUGAUAGUGCUAAGGGGGCCUGGAAGUUUGGACAGGGCAGAGCUCAACACAGCGUGGCAAAGUGGCUGUGGCUAGACUGCCUCUCUGGAUUCCUCGUCACUCAGCAGGGCAUCUCUGAGAGAAAUGCC ? Criterion met

In plain terms: is recorded self-cleavage at least 1 for UACGUGGGUGGUUUUCCCCUGAUAGUGCUAAGGGGGCCUGGAAGUUUGGACUGGGCAGGGCUCAACACAGCGUGGCAAAGUGGCUGUGGCUAGACUGCCUCUCUGGAUUCCUCGUCACUCAGCAGGGCAUCUCUGAGAGAAAUGCC ? Criterion not met

Source of measurements: the RNAGym collection of RNA variant scans (doi:10.7554/elife.90254)
